Biological target: UniProt A0A0V1C1R2
Sequence (A0A0V1C1R2 entry or part of it): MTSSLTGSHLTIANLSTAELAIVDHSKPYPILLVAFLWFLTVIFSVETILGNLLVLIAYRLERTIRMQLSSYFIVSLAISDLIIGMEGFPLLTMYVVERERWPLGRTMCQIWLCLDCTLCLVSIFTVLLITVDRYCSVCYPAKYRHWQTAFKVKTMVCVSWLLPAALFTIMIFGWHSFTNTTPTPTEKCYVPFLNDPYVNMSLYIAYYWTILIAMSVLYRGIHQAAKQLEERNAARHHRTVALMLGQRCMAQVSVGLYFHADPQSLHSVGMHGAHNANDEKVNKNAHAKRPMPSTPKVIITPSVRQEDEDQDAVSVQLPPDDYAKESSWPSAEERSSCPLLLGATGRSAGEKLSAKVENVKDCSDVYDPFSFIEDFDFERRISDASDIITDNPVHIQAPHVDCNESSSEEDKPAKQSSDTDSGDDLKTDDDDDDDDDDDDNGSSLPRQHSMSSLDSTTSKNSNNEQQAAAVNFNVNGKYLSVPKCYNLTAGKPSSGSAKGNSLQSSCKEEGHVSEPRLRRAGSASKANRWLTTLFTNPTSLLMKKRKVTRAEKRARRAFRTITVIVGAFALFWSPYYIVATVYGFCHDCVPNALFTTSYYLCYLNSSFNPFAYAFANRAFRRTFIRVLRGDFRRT
Assay: Aequorin calcium mobilization agonist assay in CHO-K1 cells expressing TsGAR-1
Format: cell-based
Conditions: agonist; CHO cells, co-expressed with Gα15(16); SE of three biological replications; read-out: EC50 ± SE (nM), TsGAR-1
Description: T. spiralis GARs were heterologously expressed in CHO–K1 cells (Sigma) along with the aequorin reporter—with or without the wild-type human G protein alpha 15 subunit (Gα15(16)) (cDNA Resource Center, Bloomsburg University of Pennsylvania)—to observe activation of the receptor by monitoring bioluminescence triggered by the mobilization of intracellular calcium ([Offermanns and Simon, 1995]; [Park et al., 2002]). […]
attribute_measured: EC50 (nM)
Just the number in nM, nothing appended.

Per the record, CC(=O)OCC[N+](C)(C)C [Acetylcholine, acetylcholine chloride] has EC50 of 194
